Molecular target: Macaca fascicularis IL-36R extracellular domain expressed with a C-terminal myc-myc-hexahistidine tag (Macaca fascicularis)
Experiment: SPR Biacore T200, mAb captured by anti-hFc, 25C, PBS-T pH 7.4

Binder	Value units	koff
H4H14728P (antibody, human IgG4 S228P, kappa, V domains shown) VH: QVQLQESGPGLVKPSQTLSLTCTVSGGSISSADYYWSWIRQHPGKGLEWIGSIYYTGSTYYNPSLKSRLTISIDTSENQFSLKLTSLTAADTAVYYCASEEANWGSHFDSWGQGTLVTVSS VL: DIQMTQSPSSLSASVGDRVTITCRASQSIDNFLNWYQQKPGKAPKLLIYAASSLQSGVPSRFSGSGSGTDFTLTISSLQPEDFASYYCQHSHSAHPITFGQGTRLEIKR	s⁻¹	0.000544
